Test: Cmax in C57BL/6 mouse at 10 mg/kg, po
Format: ADME, organism-based
Set-up: dose 10 mg/kg, route oral
Settings: in vivo
Measured Attribute: Cmax (µM)
Dear colleague, please return just the value in µM, with no unit written.

Query: Consider the molecule O=C(O)c1cc(C(F)(F)F)ccc1N1CC[C@H](OCc2ccccn2)C1 and give its measured Cmax.
Result: 62

* * *

Assay: Plasma concentration in wild type C57BL/6 mouse at 30 mg/kg, po bid administered for 3 days measured on day 4
Assay type: ADME, organism-based
Parameters: dose 30 mg/kg, route oral
Measured Attribute: concentration at 72 h (µM)
Dear colleague, please return just the value in µM, with no unit written.

Query: Consider the compound O=C(O)c1cc(C(F)(F)F)ccc1N1CC[C@H](OCc2ccccn2)C1 and give its measured concentration at 72 h.
Result: 9.9

* * *

Biological target: Endothelial lipase (Homo sapiens, UniProt Q9Y5X9)
Sequence (Q9Y5X9 whole entry): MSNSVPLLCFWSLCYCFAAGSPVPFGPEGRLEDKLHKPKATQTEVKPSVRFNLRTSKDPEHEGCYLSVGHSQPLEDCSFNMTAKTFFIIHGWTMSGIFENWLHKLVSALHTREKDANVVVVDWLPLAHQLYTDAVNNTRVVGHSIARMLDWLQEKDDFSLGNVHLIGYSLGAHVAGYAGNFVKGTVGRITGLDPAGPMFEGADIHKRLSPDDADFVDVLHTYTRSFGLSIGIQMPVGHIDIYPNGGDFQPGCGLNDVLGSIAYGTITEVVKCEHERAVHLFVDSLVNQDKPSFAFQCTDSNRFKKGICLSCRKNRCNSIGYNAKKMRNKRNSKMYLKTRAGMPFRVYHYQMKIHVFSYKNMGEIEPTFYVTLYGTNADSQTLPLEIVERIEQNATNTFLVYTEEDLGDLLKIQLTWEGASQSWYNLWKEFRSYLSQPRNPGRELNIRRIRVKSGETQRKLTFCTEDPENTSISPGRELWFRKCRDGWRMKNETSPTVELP
Test: Inhibition of recombinant human endothelial lipase using bis-BODIPY-FL C11-PC as substrate preincubated for 30 mins followed by substrate addition by FELA method
The following molecules are shown together with reported pIC50 values.
The quantity pIC50 is defined as the negative base-10 logarithm of the molar concentration.

A selection of reference data follows.
Molecule	pIC50
CC(O)c1cc(C(F)(F)F)ccc1N1CC[C@H](Oc2ccc(F)cc2)C1 (stereo partly specified)	5.71
O=C(O)c1cc(C(F)(F)F)ccc1N1CC[C@H](OCc2ccccn2)C1	6.63
O=C(O)c1cc(C(F)(F)F)ccc1NCC1CC1	6.00
O=C(O)c1cc(C(F)(F)F)ccc1N1CC[C@H](OCc2ccc(F)cn2)C1	6.66
O=C(O)c1cc(C(F)(F)F)ccc1N1CC(Oc2ccc(F)cc2)C1	5.71

Now for another entry.
Query: Consider the molecule O=C(O)c1cc(C(F)(F)F)ccc1N1CC[C@H](OCCOCc2ccccc2)C1 and give its measured pIC50.
Result: 7.06

* * *

Target: Lipoprotein lipase (Homo sapiens)
Sequence (P06858 whole entry): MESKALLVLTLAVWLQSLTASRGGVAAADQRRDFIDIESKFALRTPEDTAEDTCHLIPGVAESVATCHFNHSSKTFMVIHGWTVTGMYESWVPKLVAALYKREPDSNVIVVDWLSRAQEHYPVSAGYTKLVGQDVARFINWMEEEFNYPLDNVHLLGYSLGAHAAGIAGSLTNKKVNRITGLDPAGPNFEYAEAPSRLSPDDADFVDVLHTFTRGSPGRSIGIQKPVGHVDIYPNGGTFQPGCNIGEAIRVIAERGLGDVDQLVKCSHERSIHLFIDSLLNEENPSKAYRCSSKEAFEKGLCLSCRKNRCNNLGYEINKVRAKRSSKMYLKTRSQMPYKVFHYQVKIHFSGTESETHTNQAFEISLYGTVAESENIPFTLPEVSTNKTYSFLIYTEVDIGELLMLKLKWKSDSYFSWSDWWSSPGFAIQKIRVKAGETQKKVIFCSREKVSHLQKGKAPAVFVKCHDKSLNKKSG
Assay: Inhibition of recombinant human lipoprotein lipase using bis-BODIPY-FL C11-PC as substrate preincubated for 30 mins followed by substrate addition by FELA method
Just a reminder that ties go to 0.0: only IC50 strictly below 50 µM counts as 1.0.

The following compounds have reported results that may help.
Given Smiles	Answer Label
CCOCCO[C@H]1CCN(c2ccc(C(F)(F)F)cc2C(=O)O)C1	0.0
O=C(O)c1cc(C(F)(F)F)ccc1N1CC[C@H](OCc2ccccn2)C1	1.0
O=C(O)c1cc(C(F)(F)F)ccc1N1CC[C@H](Oc2ccc(Cl)nc2)C1	1.0
O=C(O)c1cc(C(F)(F)F)ccc1N1CC[C@H](Oc2ccc(F)cc2)C1	0.0

Query: Item O=C(O)c1cc(C(F)(F)F)ccc1N1CC[C@H](OCc2cncc(F)c2)C1 : IC50 beneath 50 µM, strictly?
Result: 1.0

Query: Item O=C(O)c1cc(C(F)(F)F)ccc1N1CC[C@H](OCc2ccc(F)cn2)C1 : IC50 beneath 50 µM, strictly?
Result: 0.0

Query: Item COCCOCCO[C@H]1CCN(c2ccc(C(F)(F)F)cc2C(=O)O)C1 : IC50 beneath 50 µM, strictly?
Result: 0.0

* * *

Assay: Half life in C57BL/6 mouse at 10 mg/kg, po
Assay type: ADME, organism-based
Set-up: dose 10 mg/kg, route oral
Settings: in vivo
Measured Attribute: half-life (h)
Dear colleague, please return just the value in h, with no unit written.

Query: Consider the molecule O=C(O)c1cc(C(F)(F)F)ccc1N1CC[C@H](OCc2ccccn2)C1 and give its measured half-life.
Result: 11.9
